Entries and their Remaining activity (% of control) values follow.
- assay.target: cGMP-dependent 3',5'-cyclic phosphodiesterase (Homo sapiens)
- test: Inhibitory activity against human platelet phosphodiesterase 2 at 50 uM expressed as percent basal value
# output: bare number, implied unit %

Kindly note the recorded Remaining activity (% of control) for `O=c1cc(N2CCOCC2)oc2c(-c3ccc(F)cc3)cccc12` , which is 43

Kindly note the recorded Remaining activity (% of control) for `O=c1cc(N2CCOCC2)oc2cc(-c3ccccc3)ccc12` , which is 9

Kindly note the recorded Remaining activity (% of control) for `O=c1cc(N2CCOCC2)oc2c(-c3ccccc3C(F)(F)F)cccc12` , which is 43

Kindly note the recorded Remaining activity (% of control) for `O=c1cc(N2CCOCC2)oc2c(OCc3ccccc3)cccc12` , which is 40

Kindly note the recorded Remaining activity (% of control) for `O=c1cc(N2CCOCC2)oc2c(-c3ccccc3)cc(O)cc12` , which is 69

###

- assay.target: cGMP-dependent 3',5'-cyclic phosphodiesterase (Homo sapiens, UniProt O00408)
- Sequence (O00408 whole entry): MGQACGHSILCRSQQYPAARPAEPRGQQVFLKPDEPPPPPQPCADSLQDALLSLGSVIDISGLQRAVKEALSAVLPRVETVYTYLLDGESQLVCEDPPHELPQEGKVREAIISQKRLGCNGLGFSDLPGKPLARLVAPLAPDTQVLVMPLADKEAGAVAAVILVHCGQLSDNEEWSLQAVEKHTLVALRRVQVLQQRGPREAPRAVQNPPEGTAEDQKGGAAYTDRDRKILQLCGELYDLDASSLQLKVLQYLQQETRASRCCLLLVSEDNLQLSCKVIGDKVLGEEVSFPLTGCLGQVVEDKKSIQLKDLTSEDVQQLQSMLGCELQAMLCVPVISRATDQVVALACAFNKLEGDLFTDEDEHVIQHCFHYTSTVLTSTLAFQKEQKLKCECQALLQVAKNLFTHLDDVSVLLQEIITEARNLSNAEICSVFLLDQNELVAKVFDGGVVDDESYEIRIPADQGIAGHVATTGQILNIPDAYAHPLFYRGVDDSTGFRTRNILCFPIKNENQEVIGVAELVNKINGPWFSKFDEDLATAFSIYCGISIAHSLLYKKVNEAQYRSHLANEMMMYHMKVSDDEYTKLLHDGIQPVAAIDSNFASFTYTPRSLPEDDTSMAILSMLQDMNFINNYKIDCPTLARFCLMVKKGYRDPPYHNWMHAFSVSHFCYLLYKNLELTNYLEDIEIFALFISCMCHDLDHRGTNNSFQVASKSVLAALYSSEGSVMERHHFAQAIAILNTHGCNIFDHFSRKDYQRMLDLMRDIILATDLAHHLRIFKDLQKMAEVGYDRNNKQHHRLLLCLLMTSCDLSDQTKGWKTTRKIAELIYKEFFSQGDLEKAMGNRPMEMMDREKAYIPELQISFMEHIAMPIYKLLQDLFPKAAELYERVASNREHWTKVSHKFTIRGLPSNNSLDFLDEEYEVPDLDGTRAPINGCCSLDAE
- test: Inhibitory activity against human platelet phosphodiesterase 2 at 50 uM expressed as percent basal value
recorded.metric: Remaining activity (% of control) (%)
# output: bare number, implied unit %

[
  {
    "chemical.smiles": "COc1cccc2c(=O)cc(N3CCOCC3)oc12",
    "assay.target": "cGMP-dependent 3',5'-cyclic phosphodiesterase (Homo sapiens, UniProt O00408)",
    "readout.unit": "%",
    "measured.result": 20
  },
  {
    "chemical.smiles": "O=c1cc(N2CCOCC2)oc2c(O)cccc12",
    "assay.target": "cGMP-dependent 3',5'-cyclic phosphodiesterase (Homo sapiens, UniProt O00408)",
    "readout.unit": "%",
    "measured.result": 19
  },
  {
    "chemical.smiles": "Cc1c(C#Cc2ccccc2)ccc2c(=O)cc(N3CCOCC3)oc12",
    "assay.target": "cGMP-dependent 3',5'-cyclic phosphodiesterase (Homo sapiens, UniProt O00408)",
    "readout.unit": "%",
    "measured.result": 44
  },
  {
    "chemical.smiles": "Cc1c(-c2ccccc2)ccc2c(=O)cc(N3CCOCC3)oc12",
    "assay.target": "cGMP-dependent 3',5'-cyclic phosphodiesterase (Homo sapiens, UniProt O00408)",
    "readout.unit": "%",
    "measured.result": 31
  },
  {
    "chemical.smiles": "O=c1cc(N2CCOCC2)oc2c(CCc3ccccc3)cccc12",
    "assay.target": "cGMP-dependent 3',5'-cyclic phosphodiesterase (Homo sapiens, UniProt O00408)",
    "readout.unit": "%",
    "measured.result": 43
  },
  {
    "chemical.smiles": "Cc1cc(-c2ccccc2)c2oc(N3CCOCC3)cc(=O)c2c1",
    "assay.target": "cGMP-dependent 3',5'-cyclic phosphodiesterase (Homo sapiens, UniProt O00408)",
    "readout.unit": "%",
    "measured.result": 60
  }
]

Kindly note the recorded Remaining activity (% of control) for `COc1cc(-c2ccccc2Cl)c2oc(N3CCOCC3)cc(=O)c2c1` , which is 78

###

- assay.target: cGMP-dependent 3',5'-cyclic phosphodiesterase (Homo sapiens)
- test: Inhibitory activity against human platelet phosphodiesterase 2 at 50 uM expressed as percent basal value
Entries and their Remaining activity (% of control) values follow.
# output: bare number, implied unit %

Kindly note the recorded Remaining activity (% of control) for `Cc1c(OCc2cccnc2)ccc2c(=O)cc(N3CCOCC3)oc12` , which is 35

Kindly note the recorded Remaining activity (% of control) for `O=c1cc(N2CCOCC2)oc2c(-c3ccccc3)cccc12` , which is 54

Kindly note the recorded Remaining activity (% of control) for `O=c1cc(N2CCOCC2)oc2c(-c3ccccc3Cl)cccc12` , which is 62

Kindly note the recorded Remaining activity (% of control) for `O=c1cc(N2CCOCC2)oc2c(-c3ccc(Oc4ccccc4)cc3)cccc12` , which is 75

###

Entries and their Remaining activity (% of control) values follow.
- assay.target: cGMP-dependent 3',5'-cyclic phosphodiesterase (Homo sapiens, UniProt O00408)
- test: Inhibitory activity against human platelet phosphodiesterase 2 at 50 uM expressed as percent basal value
# output: bare number, implied unit %

[
  {
    "chemical.smiles": "COc1ccccc1-c1cccc2c(=O)cc(N3CCOCC3)oc12",
    "readout.unit": "%",
    "Remaining activity (% of control)": 47
  },
  {
    "chemical.smiles": "O=c1cc(N2CCOCC2)oc2c(C#Cc3ccccc3)cccc12",
    "readout.unit": "%",
    "Remaining activity (% of control)": 93
  },
  {
    "chemical.smiles": "O=c1cc(N2CCOCC2)oc2cc(OCc3ccccc3)ccc12",
    "readout.unit": "%",
    "Remaining activity (% of control)": 12
  },
  {
    "chemical.smiles": "COc1cc(-c2cccc(Cl)c2)c2oc(N3CCOCC3)cc(=O)c2c1",
    "readout.unit": "%",
    "Remaining activity (% of control)": 87
  },
  {
    "chemical.smiles": "Cc1ccccc1-c1cccc2c(=O)cc(N3CCOCC3)oc12",
    "readout.unit": "%",
    "Remaining activity (% of control)": 47
  }
]

Field: next compound
Measured Remaining activity (% of control) for this entry `CCc1cc(-c2ccccc2)c2oc(N3CCOCC3)cc(=O)c2c1` on cGMP-dependent 3',5'-cyclic phosphodiesterase (Homo sapiens, UniProt O00408): 47

###

Entries and their Remaining activity (% of control) values follow.
- assay.target: UniProtKB O00408
- test: Inhibitory activity against human platelet phosphodiesterase 2 at 50 uM expressed as percent basal value
# output: bare number, implied unit %

Kindly note the recorded Remaining activity (% of control) for `O=c1cc(N2CCOCC2)oc2c(OCc3cccnc3)cccc12` , which is 35

Kindly note the recorded Remaining activity (% of control) for `COc1cc(-c2ccccc2)c2oc(N3CCOCC3)cc(=O)c2c1` , which is 75

Kindly note the recorded Remaining activity (% of control) for `COc1cc(-c2ccc(Cl)cc2)c2oc(N3CCOCC3)cc(=O)c2c1` , which is 67

Kindly note the recorded Remaining activity (% of control) for `COc1ccc2oc(N3CCOCC3)cc(=O)c2c1` , which is 38

Kindly note the recorded Remaining activity (% of control) for `O=c1cc(N2CCOCC2)oc2cc(OCc3cccnc3)ccc12` , which is 22

Kindly note the recorded Remaining activity (% of control) for `O=c1cc(N2CCOCC2)oc2cc(C#Cc3ccccc3)ccc12` , which is 92

Kindly note the recorded Remaining activity (% of control) for `Cc1c(OCc2ccccc2)ccc2c(=O)cc(N3CCOCC3)oc12` , which is 38

Origin of values: ChEMBL document CHEMBL1148432
